System: human neonatal skin fibroblasts (CCD-27SK, ATCC CRL-1475)
test method notes: Starvation (serum deprivation) stress, neutral red uptake viability
Assay type: cell-based
particulars: D4 after serum deprivation; 10 mg/mL; positive control with 5% FBS (Table 3)
Listed below: Percentage of viability values for each entry.
endpoint: Percentage of viability (%)

molecule	units of measure	recorded measurement
Cl.Cl.N[C@@H](CCCCNCC(F)(F)C1(O)O[C@H](CO)[C@H](O)[C@H](O)[C@H]1O)C(=O)NCC(=O)NCC(=O)O (stereo partly shown)	%	99
C[C@H](NC(=O)CNC(=O)[C@@H](N)CCCCNCC(F)(F)C1(O)O[C@H](CO)[C@H](O)[C@H](O)[C@H]1O)C(=O)O.Cl.Cl (stereo partly shown)	%	109
Cl.Cl.N[C@@H](CCCCNCC(F)(F)C1(O)O[C@H](CO)[C@H](O)[C@H](O)[C@H]1O)C(=O)O (stereo partly shown)	%	111
C[C@H](NC(=O)[C@H](C)NC(=O)[C@@H](N)CCCNCC(F)(F)C1(O)O[C@H](CO)[C@H](O)[C@H](O)[C@H]1O)C(=O)O.Cl.Cl (stereo partly shown)	%	92
C[C@H](NC(=O)[C@@H](N)CCCCNCC(F)(F)C1(O)O[C@H](CO)[C@H](O)[C@H](O)[C@H]1O)C(=O)N1CCC[C@H]1C(=O)O.Cl.Cl (stereo partly shown)	%	103
C[C@H](NC(=O)[C@@H](N)CCCCNCC(F)(F)C1(O)O[C@H](CO)[C@H](O)[C@H](O)[C@H]1O)C(=O)NCC(=O)O.Cl.Cl (stereo partly shown)	%	89
C[C@H](N)C(=O)N[C@@H](CCCCNCC(F)(F)C1(O)O[C@H](CO)[C@H](O)[C@H](O)[C@H]1O)C(=O)N[C@@H](C)C(=O)O.Cl.Cl (stereo partly shown)	%	101
